// values below are reported Anti-CD28 Fab signal
Target: anti-CD28 Fab (SEQ ID NOs: 202, 203)
Sequence (VH, as listed by the source, chain 1 of 2): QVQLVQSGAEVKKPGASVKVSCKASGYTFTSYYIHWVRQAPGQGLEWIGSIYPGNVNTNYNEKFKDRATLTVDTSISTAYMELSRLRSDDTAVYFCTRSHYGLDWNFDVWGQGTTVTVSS
Sequence (VL, as listed by the source, chain 2 of 2): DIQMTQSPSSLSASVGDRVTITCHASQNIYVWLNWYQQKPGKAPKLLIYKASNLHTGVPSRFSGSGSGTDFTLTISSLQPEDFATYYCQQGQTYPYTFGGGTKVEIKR
Assay: phage ELISA, Fab on plate;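 further: ELISA of crude clonal phage supernatants on the plate, wells preloaded with CD28 antigen or only blocking buffer, captured phage read out via HRP-linked anti-M13 antibody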
Please reply with the number alone, leaving off any unit.

As a guide, the following entries are already answered.
>  <BINDER>
TCAAGANYSWPACL [Phage-1199]

>  <REPORTED VALUE>
1.14

$$$$
>  <BINDER>
SCAAGAHYPWPECL [Phage-1160]

>  <REPORTED VALUE>
1.32

$$$$
>  <BINDER>
TCSAGATYSWPLCF [Phage-1203]

>  <REPORTED VALUE>
1.12

$$$$
>  <BINDER>
TCAAGATYSWPSCF [Phage-1204]

>  <REPORTED VALUE>
1.1

$$$$

Lookup result for SCSAGAGWAWPMCF [Phage-1196] ; measured Anti-CD28 Fab signal: 1.16

These data points were gathered from patent US20260274955A1.
